- assay_notes: Quantitative High-Throughput drug screen in 47 multiple myeloma cell lines against the NCATS MIPE library collection: H1112_PLB cell viability assay (AID 1918967; note: nearly all actives have a fitted effect of over 30% in size)
- test_context: H1112 myeloma cells viability, ATP luminescence, 48 h; series mostly up to 45.8 µM
Inconclusive results are not listed. Activity calls are given as the source filed them. Calls come from the whole dose curve; as a rule, active = well fitted cell-killing curve with a large enough effect; inconclusive = small, poorly fitted or top-dose-only effect, or effect the other way; inactive = no such curve, though single readings can be large or run the other way.
One label from this list, please: TRUE for active, FALSE for inactive

Ask: Could you kindly confirm the outcome this assay logged for CC(O)=C(C#N)C(=O)Nc1cc(Br)ccc1Br ?
Reply: TRUE

Ask: Please answer likewise for CCOP(=O)(OCC)C(C)NC(=O)N(CCCl)N=O (stereo not given)
Reply: FALSE

Ask: Please answer likewise for COc1ccc(C(=O)c2c(C)n(CCN3CCOCC3)c3cc(I)ccc23)cc1
Reply: TRUE

Ask: Please answer likewise for CCCN1CCO[C@@H]2c3cc(O)ccc3OC[C@@H]21
Reply: FALSE

Ask: Please answer likewise for O=C(NCC1CCOCC1)c1cnc(Nc2ccc(Cl)cc2Cl)nc1C(F)(F)F
Reply: TRUE

Entry source: PubChem BioAssay (NCATS)
